Test Target: human mAChRM1 (Homo sapiens)
Construct: host or cells: CHO-K1
Test Description: mAChR M1 cell-based functional assay (calcium mobilization), positive allosteric modulator activity: increase in the EC20 acetylcholine response
Condition Context: increase in the EC20 acetylcholine response, read-out: PAM Activity Human M1 EC50
Readout: pEC50
Please keep in mind that pEC50 is minus log10 of the molar concentration; only the number is needed.

The cases that follow already have their pEC50 on record.
CC(C)n1cc2c(-c3cc(F)c(CN4Cc5ncccc5C4=O)c(F)c3)ccc(C(C)(C)O)c2n1
6.55
CC(C)(O)c1cccc(-c2cc(F)c(CN3Cc4ncccc4C3=O)c(F)c2)c1
5.49
Cn1cc2c(-c3cc(F)c(CN4Cc5cccc(F)c5C4=O)c(F)c3)ccc(C(C)(O)C(F)F)c2n1 (stereo not drawn)
6.35
[2H]C1([2H])c2ncccc2C(=O)N1Cc1c(F)cc(-c2ccc(C(C)(C)O)c3nn(C)cc23)cc1C1CCCC1
5.47

In: pEC50 for "Cn1cc2c(-c3cc(F)c(CN4Cc5cccc(F)c5C4=O)cc3F)ccc(C(C)(C)O)c2n1" ?
Out: 6.91

In: Quick check: pEC50 of [2H]C1([2H])c2ncccc2C(=O)N1Cc1c(F)cc(-c2ccc(C(C)(C)O)c3nn(C([2H])([2H])[2H])cc23)cc1C1CC1 (single isomer, unassigned) ?
Out: 7.13

In: # input compound: "Cc1nc2c(-c3cc(F)c(CN4Cc5ncccc5C4=O)c(F)c3)ccc(C(C)(C)O)n2n1" ; wanted: its pEC50
Out: 6.27

In: Value lookup for pEC50; key = "Cn1cc2c(-c3cc(F)c(CN4Cc5ncccc5C4=O)c(C4CC4)c3)ccc(C(C)(C)O)c2n1"
Out: 7.35

In: Recorded pEC50 for "Cn1cc2c(-c3cc(F)c(CN4Cc5ncc(Br)cc5C4=O)c(F)c3)ccc(C(C)(C)O)c2n1" , please?
Out: 6.38

In: Look up pEC50 for this compound: "Cn1cc2c(-c3cc(F)c(CN4Cc5c(F)cccc5C4=O)c(F)c3)ccc(C(C)(C)O)c2n1"
Out: 5.33

In: Request the reported pEC50 associated with "Cn1cc2cc(-c3ccc(CN4Cc5cccc(F)c5C4=O)c(F)c3)cc(C(C)(C)O)c2n1"
Out: 6.13

In: Can you look up the measured pEC50 of "Cn1cc2c(-c3cc(F)c(CN4Cc5ncccc5C4=O)c(Cl)c3)ccc(C(C)(C)O)c2n1" for me?
Out: 6.99

In: Give its pEC50 value. Item: "Cn1cc2c(-c3ccc(CN4Cc5ncccc5C4=O)cc3)ccc(C(C)(C)O)c2n1"
Out: 6.40

In: Record request: pEC50 value, item "CC(C)(O)c1ccc(-c2cc(F)c(CN3Cc4ncccc4C3=O)c(F)c2)c2c1OCO2"
Out: 6.00

In: Which pEC50 value is on record for "Cn1cc2c(-c3cc(F)c(CN4Cc5cccnc5C4=O)c(C4CCCC4)c3)ccc(C(C)(C)O)c2n1" ?
Out: 6.19

In: # query: pEC50 of entry [2H]C([2H])([2H])n1cc2c(-c3cc(F)c(CN4Cc5ncccc5C4=O)c(C4CC4)c3)ccc(C(C)(C)O)c2n1 (single isomer, unassigned)
Out: 7.18

---

Test Target: human mAChRM1 (Homo sapiens, UniProt P11229)
Construct: host or cells: CHO-K1
Test Description: mAChR M1 cell-based functional assay (calcium mobilization), agonist activity upon compound addition, Emax relative to acetylcholine maximum
Condition Context: calcium mobilization upon compound addition
# note: boundary value 6 µM maps to criterion not met; EC50 below it maps to criterion met

Cn1cc2c(-c3cc(F)c(CN4Cc5ncccc5C4=O)c(F)c3)ccc(C3(O)CCCC3)c2n1
criterion not met
[2H]C1([2H])c2ncccc2C(=O)N1Cc1c(F)cc(-c2ccc(C(C)(C)O)c3nn(C)cc23)cc1F
criterion met
COc1cc(-c2ccc(C(C)(C)O)c3nn(C)cc23)cc(F)c1CN1Cc2cccnc2C1=O
criterion not met
Cn1cc2c(-c3ccc(CN4Cc5cccnc5C4=O)c(F)c3)ccc(C(C)(C)O)c2n1
criterion not met
Cc1cc(-c2ccc(C(C)(C)O)c3nn(C)cc23)cc(Cl)c1CN1Cc2ncccc2C1=O
criterion not met
[2H]C([2H])([2H])n1cc2c(-c3cc(F)c(CN4Cc5ncccc5C4=O)c(F)c3)ccc(C(C)(C)O)c2n1
criterion met
[2H]C1([2H])c2ncccc2C(=O)N1Cc1c(C)cc(-c2ccc(C(C)(C)O)c3nn(C([2H])([2H])[2H])cc23)cc1F (single isomer, unassigned)
criterion not met
Cn1cc2c(-c3cc(F)c(CN4Cc5ncccc5C4=O)cc3F)ccc(C(C)(C)O)c2n1
criterion not met

In: Take the molecule "Cc1nc2c(-c3cc(F)c(CN4Cc5ncccc5C4=O)c(F)c3)ccc(C(C)(C)O)n2n1" and say whether its EC50 is less than 6 µM.
Out: criterion not met

---

Test Target: human mAChRM1 (Homo sapiens, UniProt P11229)
Construct: host or cells: CHO-K1
Sequence (P11229 1-460): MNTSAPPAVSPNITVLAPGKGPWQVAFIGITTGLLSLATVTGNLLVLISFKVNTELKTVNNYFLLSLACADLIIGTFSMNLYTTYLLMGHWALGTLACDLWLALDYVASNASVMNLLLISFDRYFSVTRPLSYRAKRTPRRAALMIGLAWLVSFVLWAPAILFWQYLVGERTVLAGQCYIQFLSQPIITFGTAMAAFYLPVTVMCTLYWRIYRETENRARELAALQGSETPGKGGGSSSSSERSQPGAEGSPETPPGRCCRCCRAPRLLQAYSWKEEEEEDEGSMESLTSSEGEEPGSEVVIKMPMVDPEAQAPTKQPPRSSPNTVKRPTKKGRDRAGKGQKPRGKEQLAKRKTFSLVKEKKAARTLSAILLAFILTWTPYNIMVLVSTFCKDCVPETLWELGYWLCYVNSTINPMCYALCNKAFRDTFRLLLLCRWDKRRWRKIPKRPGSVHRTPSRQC
Test Description: mAChR M1 cell-based functional assay (calcium mobilization), positive allosteric modulator activity: increase in the EC20 acetylcholine response
Condition Context: increase in the EC20 acetylcholine response, read-out: PAM Activity Human M1 EC50
This listing pairs molecules with measured EC50.
Give the value, in units of nM, as a plain number.

In: Param item = Cn1cc2c(-c3cc(F)c(CN4Cc5ncccc5C4=O)c(F)c3)ccc(C(C)(O)C(F)F)c2n1 (centres unmarked) ; retrieve measured EC50.
Out: 211

In: Can you look up the measured EC50 of "CC(C)(O)c1ccc(-c2cc(F)c(CN3Cc4nccnc4C3=O)c(F)c2)cc1" for me?
Out: 5040

In: Quick one: EC50 of "Cn1cc2c(-c3cc(F)c(CN4Cc5ccncc5C4=O)c(F)c3)ccc(C(C)(C)O)c2n1" ?
Out: 84

In: Which value of EC50 has been reported for "Cn1cc2c(-c3cc(Cl)c(CN4Cc5ncccc5C4=O)c(Cl)c3)ccc(C(C)(C)O)c2n1" in the records?
Out: 145

---

Test Target: human mAChRM1 (Homo sapiens)
Construct: host or cells: CHO-K1
Test Description: mAChR M1 cell-based functional assay (calcium mobilization), positive allosteric modulator activity: increase in the EC20 acetylcholine response
Condition Context: increase in the EC20 acetylcholine response, read-out: PAM Activity Human M1 EC50
Binarize EC50 at 200 nM; below is Met, at or above is Not met.

Would you please look over these solved cases?
[2H]C1([2H])c2ncccc2C(=O)N1Cc1c(C)cc(-c2ccc(C(C)(C)O)c3nn(C([2H])([2H])[2H])cc23)cc1F (single isomer, unassigned) [Compound 146]
Met
Cn1cc2cc(-c3ccc(CN4Cc5ncccc5C4=O)c(F)c3)cc(C(C)(C)O)c2n1 [Compound 34]
Not met
CC(C)(O)c1ccc(-c2ccc(CN3Cc4ncccc4C3=O)cc2)cc1 [Compound 11]
Not met
Cn1cc2c(-c3cc(F)c(CN4Cc5ccccc5C4=O)c(F)c3)ccc(C(C)(C)O)c2n1 [Compound 172]
Met
CCc1cnc2c(c1)C(=O)N(Cc1c(F)cc(-c3ccc(C(C)(C)O)c4nn(C)cc34)cc1F)C2 [Compound 176]
Not met

In: # check: EC50 < 200 nM for [2H]C1([2H])c2ncccc2C(=O)N1Cc1ccc(-c2ccc(C(C)(C)O)c3nn(C)cc23)c(F)c1F [Compound 149]
Out: Not met

---

Test Target: human mAChRM1 (Homo sapiens, UniProt P11229)
Construct: host or cells: CHO-K1
Sequence (P11229 1-460): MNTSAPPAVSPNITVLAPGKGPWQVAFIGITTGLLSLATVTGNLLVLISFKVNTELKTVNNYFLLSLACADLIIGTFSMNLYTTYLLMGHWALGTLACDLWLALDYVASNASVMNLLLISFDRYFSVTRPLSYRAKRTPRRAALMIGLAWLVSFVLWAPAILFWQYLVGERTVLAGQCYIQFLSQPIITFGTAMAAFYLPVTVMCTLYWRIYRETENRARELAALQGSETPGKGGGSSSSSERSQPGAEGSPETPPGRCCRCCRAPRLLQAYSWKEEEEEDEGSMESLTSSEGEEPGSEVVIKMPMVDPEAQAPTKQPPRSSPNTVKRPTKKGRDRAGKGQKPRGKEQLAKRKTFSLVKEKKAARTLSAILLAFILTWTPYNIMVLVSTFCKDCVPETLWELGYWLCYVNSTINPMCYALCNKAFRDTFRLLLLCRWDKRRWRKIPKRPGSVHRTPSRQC
Test Description: mAChR M1 cell-based functional assay (calcium mobilization), agonist activity upon compound addition, Emax relative to acetylcholine maximum
Condition Context: relative to the maximum for acetylcholine
Given measured Emax, output MET if it is greater than or equal to 20% and NOT MET if not.

Example entries and their recorded answers appear below.
Cn1cc2c(-c3cc(F)c(CN4Cc5ncccc5C4=O)c(F)c3)ccc(C3(O)CC(F)(F)C3)c2n1
NOT MET
Cn1cc2c(-c3cc(Cl)c(CN4Cc5cccnc5C4=O)c(C4CC4)c3)ccc(C(C)(C)O)c2n1
MET
Cn1cc2c(-c3ccc(CN4Cc5ncccc5C4=O)cc3)ccc(C(C)(C)O)c2n1
NOT MET

In: Does the molecule "Cn1cc2c(-c3cc(F)c(CN4Cc5cccnc5C4=O)c(C4CC4)c3)ccc(C(C)(C)O)c2n1" have recorded Emax that is 20% or more?
Out: MET

In: hey, is Emax for this one >= 20%? [2H]C1([2H])c2ncccc2C(=O)N1Cc1c(C)cc(-c2ccc(C(C)(C)O)c3nn(C([2H])([2H])[2H])cc23)cc1F (single isomer, unassigned)
Out: MET

In: Confirm if Emax reported for the molecule "Cn1cc2c(-c3cc(F)c(CN4Cc5ncccc5C4=O)c(F)c3)ccc(C(C)(C)O)c2n1" is 20% or above.
Out: MET

In: Is the recorded value of Emax equal to or greater than 20% for this molecule? "Cc1cnc2c(c1)C(=O)N(Cc1c(F)cc(-c3ccc(C(C)(C)O)c4nn(C)cc34)cc1F)C2"
Out: NOT MET

In: Dear colleague, could you confirm whether "[2H]C1([2H])c2ncccc2C(=O)N1Cc1c(Cl)cc(-c2ccc(C(C)(C)O)c3nn(C)cc23)cc1C1CC1" has Emax at or above 20%?
Out: MET

In: Hi team, for "[2H]C([2H])([2H])n1cc2c(-c3cc(F)c(CN4Cc5ncccc5C4=O)c(F)c3)ccc(C(C)(C)O)c2n1" , is the recorded Emax at or above 20%?
Out: MET

In: Tell me whether Emax is at least 20% here: "Cc1cc(-c2ccc(C(C)(C)O)c3nn(C)cc23)cc(Cl)c1CN1Cc2ncccc2C1=O"
Out: MET
